Source listed as EPA's aquatic toxicity sets.

test system: Tetrahymena pyriformis; experiment: 48 h IGC50 (-log10 mol/L); higher = more toxic
reported_property: 48 h IGC50 (-log10 mol/L)

>>> print(df.to_string())
                                    compound          reported_property   val
 0                             c1ccc2occc2c1  48 h IGC50 (-log10 mol/L)  2.89
 1       CCCCCC1CCC(=O)O1 (stereo not given)  48 h IGC50 (-log10 mol/L)  3.01
 2             CCCCC(N)CO (stereo not given)  48 h IGC50 (-log10 mol/L)  2.42
 3                               N#CCCCCCCCl  48 h IGC50 (-log10 mol/L)  3.29
 4                               C=CCOC(C)=O  48 h IGC50 (-log10 mol/L)  3.48
 5                     CC(C)(CC(=O)O)CC(=O)O  48 h IGC50 (-log10 mol/L)  2.34
 6                     C[C@H](N=C=S)c1ccccc1  48 h IGC50 (-log10 mol/L)   5.7
 7                              CCCOC(=O)CCl  48 h IGC50 (-log10 mol/L)  4.18
 8                    Oc1c(F)c(F)c(O)c(F)c1F  48 h IGC50 (-log10 mol/L)  4.84
 9                              CC#CC(=O)OCC  48 h IGC50 (-log10 mol/L)  3.51
10                            NCc1ccc(Cl)cc1  48 h IGC50 (-log10 mol/L)  3.16
11                      c1ccc2nc3ccccc3cc2c1  48 h IGC50 (-log10 mol/L)   4.4
12               O=c1cc(-c2ccccc2)oc2ccccc12  48 h IGC50 (-log10 mol/L)  4.41
13                                  CCC(N)CC  48 h IGC50 (-log10 mol/L)  2.19
14         CC#CC(C)(O)CCC (stereo not given)  48 h IGC50 (-log10 mol/L)  2.52
15                                 CCNC(C)=O  48 h IGC50 (-log10 mol/L)   1.3
16                               CC(=O)C(C)C  48 h IGC50 (-log10 mol/L)  1.83
17  CC(O)(Cc1ccccc1)c1ccccc1 (stereo not given)  48 h IGC50 (-log10 mol/L)   3.8
18                          COc1cccc(C=O)c1O  48 h IGC50 (-log10 mol/L)  3.38
19                       CC(=O)CCc1ccc(O)cc1  48 h IGC50 (-log10 mol/L)   2.5
20    CCOC(=O)C(Br)C(C)Br (stereo not given)  48 h IGC50 (-log10 mol/L)  4.44
21                             CC/C=C/C(=O)O  48 h IGC50 (-log10 mol/L)  2.72
22                        CC(C)c1ccc(C=O)cc1  48 h IGC50 (-log10 mol/L)  3.67
23                       Oc1ccc(C(F)(F)F)cc1  48 h IGC50 (-log10 mol/L)  3.62
24                           CC(=O)CCC=C(C)C  48 h IGC50 (-log10 mol/L)  2.55
25                          CCOc1cc(O)ccc1OC  48 h IGC50 (-log10 mol/L)   2.7
26                        Cc1cc(C)c(C)c(O)c1  48 h IGC50 (-log10 mol/L)  3.36
27                          Cc1ccc(Cl)c(O)c1  48 h IGC50 (-log10 mol/L)  3.54
28                             Oc1ccc(F)cc1F  48 h IGC50 (-log10 mol/L)   3.6
29                                CCc1ccccn1  48 h IGC50 (-log10 mol/L)  2.13
30        O=P(Oc1ccccc1)(Oc1ccccc1)Oc1ccccc1  48 h IGC50 (-log10 mol/L)  4.81
31                                NC(=O)CCCl  48 h IGC50 (-log10 mol/L)  1.41
32                             O=Cc1ccc(I)o1  48 h IGC50 (-log10 mol/L)  3.33
33                           CCCCCCC/C=C/C=O  48 h IGC50 (-log10 mol/L)  4.85
34                               CCCC/C=C/CO  48 h IGC50 (-log10 mol/L)  3.04
35                   N#Cc1ccccc1[N+](=O)[O-]  48 h IGC50 (-log10 mol/L)  4.08
36                   O=[N+]([O-])c1ccc(O)cc1  48 h IGC50 (-log10 mol/L)  4.42
37                            N#CC(Cl)(Cl)Cl  48 h IGC50 (-log10 mol/L)  4.88
38                            CC(=O)c1ccccc1  48 h IGC50 (-log10 mol/L)  2.54
39                                 Ic1ccccc1  48 h IGC50 (-log10 mol/L)  3.36
